# TEST NAME: wn = mass fraction of the nth substance listed
# STUDY CONDITIONS: 313.15 K; 101 kPa; Liquid; Vibrating tube method; w1 = 0.05
MEASUREMENT TYPE: mass density (kg/m3)
// return numeric value only (unit: kg/m3, not printed)

Illustrative cases are given below, each with its answer.
CC(O)CN (centres undefined) [1-amino-2-propanol] + O ... 993.483
OCCNCCO [diethanolamine] + O ... 998.43
CC(O)CNCC(C)O (centres undefined) [N-(2-hydroxypropyl)-2-hydroxy-1-propanamine] + O ... 995.576

Which mass density is listed for CC(O)CN(CC(C)O)CC(C)O (centres undefined) [triisopropanolamine] + O ?
995.768
